Procedure details: NCI Yeast Anticancer Drug Screen. Data for the rad52 strain (AID 147);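 note: 0% = growth of vehicle-treated control cultures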
Condition parameters: S. cerevisiae rad52 mutant growth inhibition; at 1.2 µM; stronger effect = higher value
Method: Growth inhibition of yeast strains with defined genetic alterations is measured as a screen for potential anti-cancer activity. Selected strains with alterations in DNA damage repair or cell cycle control were exposed to compounds and growth inhibition was measured relative to vehicle treated controls. The strain used in this assay is rad52
The panel holds about 79,000 compounds, 15% with a hit somewhere; the sample as a whole holds those more often.
Readout: growth inhibition (%)

Compound	Quantitative result
O=[N+]([O-])c1cc([As](Br)c2ccc(O)c([N+](=O)[O-])c2)ccc1O	15
S=C1NC2(CCCCC2)NC12CCCCC2	-1
OC(c1ccc(Br)cc1)C(Cl)(Cl)Cl (stereo not given)	-5
C[C@]12CCC3[C@@H](CC[C@@H]4c5nonc5CC[C@]34C)C1CCC2=O (stereo not given in full)	13
COC1C(O)C(C)OC(OC2C(Oc3cccc4c(O)c5c(=O)oc6ccc(C)c7c(=O)oc(c34)c5c67)OC(C)C(O)C2O)C1O (stereo not given)	41
COC(COC(=O)N1CCN(C=O)CC1)C1=C(N2CC2)C(=O)C(C)=C(N2CC2)C1=O (stereo not given)	4
CCNCC(=O)O[C@]1(CC)C(=O)OCc2c1cc1n(c2=O)Cc2cc3ccccc3nc2-1	38
CC1CC(Br)C(=O)O1 (stereo not given)	-27
O=[N+]([O-])c1ccc(C=Cc2ccccc2)cc1.[C-]#[O+].[C-]#[O+].[C-]#[O+].[Cr]	8
Oc1cccnc1[Se]	4
CC[C@@]1(O)C[C@H](OC2CC(N(C)C)C(O)C(C)O2)c2c(O)c3c(c(O)c2[C@H]1OC1CC(N(C)C)C(O)C(C)O1)C(=O)c1cccc(O)c1C3=O (stereo not given in full)	36
O=C(O)C1C2c3ccccc3C(c3ccccc32)C1C(=O)O (stereo not given)	-1
O=[N+]([O-])c1ccc(-n2nc3ccc4c(no[n+]4[O-])c3[n+]2[O-])c([N+](=O)[O-])c1	0
CC(Cc1ccccc1)N(C)Cc1nc(C2CCC([N+](=O)[O-])O2)no1 (stereo not given)	6
C[C@@]12CCC(=O)C=C1CC[C@H]1C2=CC[C@]2(C)C1CC[C@@]2(C)O (stereo not given in full)	-12

These data points were gathered from PubChem BioAssay (NCI).
